# system: F508delCFTR (Homo sapiens, UniProt P13569, DEL508-508)
# Construct: expressed in transfected cells; host or cells: CFBE41o- human lung-derived epithelial cells (CFBE4lo-F508delCFTR-HRP), doxycycline-inducible
# Sequence (P13569 with tags, fused parts or gaps DEL508-508): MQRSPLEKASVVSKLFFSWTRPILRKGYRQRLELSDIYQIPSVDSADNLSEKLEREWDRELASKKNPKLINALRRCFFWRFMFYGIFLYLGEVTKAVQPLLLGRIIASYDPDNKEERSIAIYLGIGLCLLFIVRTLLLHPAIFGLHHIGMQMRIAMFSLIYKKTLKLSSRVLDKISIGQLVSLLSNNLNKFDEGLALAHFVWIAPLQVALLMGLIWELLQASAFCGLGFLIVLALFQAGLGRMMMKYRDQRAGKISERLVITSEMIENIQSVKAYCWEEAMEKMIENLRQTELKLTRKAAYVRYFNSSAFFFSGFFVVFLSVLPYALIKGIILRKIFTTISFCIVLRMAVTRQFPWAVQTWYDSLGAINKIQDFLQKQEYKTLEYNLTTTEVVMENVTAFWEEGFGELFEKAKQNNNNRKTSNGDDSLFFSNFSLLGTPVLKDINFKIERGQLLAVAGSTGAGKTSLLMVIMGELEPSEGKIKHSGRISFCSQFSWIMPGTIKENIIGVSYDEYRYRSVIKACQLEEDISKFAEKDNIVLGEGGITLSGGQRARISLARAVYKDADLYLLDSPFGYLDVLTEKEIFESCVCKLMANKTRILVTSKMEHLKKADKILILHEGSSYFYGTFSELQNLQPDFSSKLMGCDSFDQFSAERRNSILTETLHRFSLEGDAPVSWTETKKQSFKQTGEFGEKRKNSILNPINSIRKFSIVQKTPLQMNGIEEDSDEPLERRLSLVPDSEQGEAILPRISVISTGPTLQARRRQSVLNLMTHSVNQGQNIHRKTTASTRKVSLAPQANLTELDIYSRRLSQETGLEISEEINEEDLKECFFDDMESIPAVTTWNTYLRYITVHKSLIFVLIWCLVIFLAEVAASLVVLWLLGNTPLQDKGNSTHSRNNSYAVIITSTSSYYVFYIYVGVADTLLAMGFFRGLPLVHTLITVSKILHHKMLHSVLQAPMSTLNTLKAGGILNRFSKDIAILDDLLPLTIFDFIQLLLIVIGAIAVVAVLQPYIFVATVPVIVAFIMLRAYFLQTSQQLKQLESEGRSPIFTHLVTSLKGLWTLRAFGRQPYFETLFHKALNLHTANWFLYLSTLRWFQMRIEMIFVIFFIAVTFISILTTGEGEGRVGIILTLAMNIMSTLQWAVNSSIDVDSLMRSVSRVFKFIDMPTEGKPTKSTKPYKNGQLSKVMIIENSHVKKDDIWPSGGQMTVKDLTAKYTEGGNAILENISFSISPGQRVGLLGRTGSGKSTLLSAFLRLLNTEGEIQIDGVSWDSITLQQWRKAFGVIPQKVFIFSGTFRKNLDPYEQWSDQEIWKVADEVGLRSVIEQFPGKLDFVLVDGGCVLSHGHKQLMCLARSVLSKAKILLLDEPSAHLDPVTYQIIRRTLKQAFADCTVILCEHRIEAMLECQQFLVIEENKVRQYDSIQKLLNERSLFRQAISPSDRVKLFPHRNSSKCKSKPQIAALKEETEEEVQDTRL
# assayMethodText: Cell Surface Expression-Horse Radish Peroxidase (CSE-HRP) Assay;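 also: co-corrector and positive control are both the same reference corrector at 2 µM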
# Type: cell-based
# reportedConditions: CSE-HRP; with co-corrector (2 μM); maximum at any tested concentration, normalized to on-plate positive control
measurementName: Maximum % activity (with co-corrector)

Completed entries (count: 8):
compound	Maximum % activity (with co-corrector)
COc1nc(C(F)(F)F)ccc1CN[C@@H]1[C@@H](C(C)(C)C)[C@H](C(=O)O)N(C(=O)C2CCCCC2)[C@@H]1c1ccccc1 (racemic)	+++ (≥350)
COc1cc(C(F)(F)F)ccc1CN[C@H]1[C@H](C(C)(C)C)[C@@H](C(=O)O)N(C(=O)[C@H](OC)c2ccccc2)[C@H]1c1cccnc1OC	+++ (≥350)
COc1ccc(C(C)(C)C)cc1CN[C@H]1[C@H](C(C)(C)C)[C@@H](C(=O)O)N(C(=O)[C@H]2OCC[C@H]2C)[C@H]1c1ccccc1 (relative stereo)	+++ (≥350)
COc1cc(C(F)(F)F)ccc1CN[C@H]1[C@H](C(C)(C)C)[C@@H](C(=O)O)N(C(=O)C2CCCCO2)[C@H]1c1cccnc1OC (relative stereo)	+++ (≥350)
COc1cc(C(F)(F)F)ccc1CN[C@@H]1[C@@H](C(C)(C)C)[C@H](C(=O)O)N(C(=O)[C@@H]2CCCCO2)[C@@H]1c1ccccc1 (racemic) [II-49]	+++ (≥350)
Cc1ccc(C(F)(F)F)cc1CN[C@@H]1[C@@H](C(C)(C)C)[C@H](C(=O)O)N(C(=O)C2CCCCC2)[C@@H]1c1ccccc1 (racemic)	++ (≥150 and <350)
COc1cc(CN[C@H]2[C@H](C(C)(C)C)[C@@H](C(=O)O)N(C(=O)C3CCCCC3)[C@H]2c2ccccc2)c(F)cc1Cl	++ (≥150 and <350)
COc1ccc(C2=CCOC2)cc1CN[C@H]1[C@H](C(C)(C)C)[C@@H](C(=O)O)N(C(=O)C2CCCCC2)[C@H]1c1ccccc1	+++ (≥350)

Task item: Would you kindly share the measured Maximum % activity (with co-corrector) for `CC(C)c1ccccc1[C@H]1[C@@H](NCc2cccc3c2OC(C)(C)C3)[C@H](C(C)(C)C)[C@@H](C(=O)O)N1C(=O)[C@@H]1CCCCO1` ?
Reply: +++ (≥350)

Task item: Would you kindly share the measured Maximum % activity (with co-corrector) for `COc1ccc(CN[C@H]2[C@H](C(C)(C)C)[C@@H](C(=O)O)N(C(=O)C3CCCCC3)[C@H]2c2ccccc2)cc1C(F)(F)F` ?
Reply: ++ (≥150 and <350)

Task item: Would you kindly share the measured Maximum % activity (with co-corrector) for COc1ccc(C(C)(C)C)cc1CN[C@H]1[C@H](C(C)(C)C)[C@@H](C(=O)O)N(C(=O)C2CCCC(C(F)(F)F)C2)[C@H]1c1ccccc1 (stereo partly drawn) ?
Reply: +++ (≥350)

Task item: Would you kindly share the measured Maximum % activity (with co-corrector) for Cc1cc(C(F)(F)F)cc(N[C@@H]2[C@@H](C(C)(C)C)[C@H](C(=O)O)N(C(=O)Cc3ccccc3)[C@@H]2c2ccccc2)n1 (racemic) ?
Reply: ++ (≥150 and <350)

Task item: Would you kindly share the measured Maximum % activity (with co-corrector) for `COc1ccc(Cl)cc1CN[C@H]1[C@H](C(C)(C)C)[C@@H](C(=O)O)N(C(=O)C2CCCCC2)[C@H]1c1cccnc1C` ?
Reply: +++ (≥350)

Task item: Would you kindly share the measured Maximum % activity (with co-corrector) for `COc1cc(C(F)(F)F)ccc1CN[C@H]1[C@H](C(C)(C)C)[C@@H](C(=O)O)N(C(=O)c2ccccc2)[C@H]1c1ccccc1` ?
Reply: +++ (≥350)

Task item: Would you kindly share the measured Maximum % activity (with co-corrector) for `COc1ccc(OC(F)F)cc1CN[C@H]1[C@H](C(C)(C)C)[C@@H](C(=O)O)N(C(=O)C2CCCCC2)[C@H]1c1ccccc1` ?
Reply: +++ (≥350)

Task item: Would you kindly share the measured Maximum % activity (with co-corrector) for `CC(C)(C)[C@H]1[C@H](Nc2cc(C#N)cnc2Cl)[C@H](c2ccccc2)N(C(=O)C2CCCCC2)[C@@H]1C(=O)O` ?
Reply: +++ (≥350)

Task item: Would you kindly share the measured Maximum % activity (with co-corrector) for `COc1ccc(C(C)(C)C)cc1CN[C@H]1[C@H](C(C)(C)C)[C@@H](C(=O)O)N(C(=O)c2cccc(Cn3cncn3)c2)[C@H]1c1ccccc1` ?
Reply: +++ (≥350)

Task item: Would you kindly share the measured Maximum % activity (with co-corrector) for `CC(C)OC(=O)N1[C@H](C(=O)O)[C@@H](C(C)(C)C)[C@H](NCC(C)(C)c2ccccc2)[C@@H]1c1ccccc1` ?
Reply: ++ (≥150 and <350)

Task item: Would you kindly share the measured Maximum % activity (with co-corrector) for `COc1ccc(C(C)(C)C)cc1CN[C@H]1[C@H](C(C)(C)C)[C@@H](C(=O)O)N(C(=O)Cc2nn(C)c(=O)c3ccccc23)[C@H]1c1ccccc1` ?
Reply: +++ (≥350)

Task item: Would you kindly share the measured Maximum % activity (with co-corrector) for `COc1ncc(C2CCC2)cc1CN[C@H]1[C@H](C(C)(C)C)[C@@H](C(=O)O)N(C(=O)[C@@H]2CCCO2)[C@H]1c1ccccc1C(F)(F)F` ?
Reply: +++ (≥350)

Task item: Would you kindly share the measured Maximum % activity (with co-corrector) for `COc1ccc(Cl)c2c1CN([C@H]1[C@H](C(C)(C)C)[C@@H](C(=O)O)N(C(=O)[C@@H]3CCCCO3)[C@H]1c1ccccc1C(C)C)C2` ?
Reply: +++ (≥350)

Task item: Would you kindly share the measured Maximum % activity (with co-corrector) for `COc1ccc(C(C)(C)C)cc1CN[C@H]1[C@H](C(C)(C)C)[C@@H](C(=O)O)N(C(=O)OCC(C)C)[C@H]1c1ccccc1` ?
Reply: +++ (≥350)

Task item: Would you kindly share the measured Maximum % activity (with co-corrector) for `COc1ccc(C(F)(F)F)cc1CN[C@H]1[C@H](C(C)(C)C)[C@@H](C(=O)O)N(C(=O)OC(C)C)[C@H]1c1cccc(Cl)c1` ?
Reply: +++ (≥350)

Task item: Would you kindly share the measured Maximum % activity (with co-corrector) for `CC(C)(C)[C@H]1[C@H](NCc2cc(Cl)ccc2Cl)[C@H](c2ccccc2)N(C(=O)C2CCCCC2)[C@@H]1C(=O)O` ?
Reply: +++ (≥350)
